FYI, the data here is from patent US20240270857A1.

Target: T1, IL-36R naturally expressed on OVCAR8 cells and on normal human epidermal keratinocytes (NHK cells) (human, UniProt Q9HB29 20-575)
T1 sequence (looked up): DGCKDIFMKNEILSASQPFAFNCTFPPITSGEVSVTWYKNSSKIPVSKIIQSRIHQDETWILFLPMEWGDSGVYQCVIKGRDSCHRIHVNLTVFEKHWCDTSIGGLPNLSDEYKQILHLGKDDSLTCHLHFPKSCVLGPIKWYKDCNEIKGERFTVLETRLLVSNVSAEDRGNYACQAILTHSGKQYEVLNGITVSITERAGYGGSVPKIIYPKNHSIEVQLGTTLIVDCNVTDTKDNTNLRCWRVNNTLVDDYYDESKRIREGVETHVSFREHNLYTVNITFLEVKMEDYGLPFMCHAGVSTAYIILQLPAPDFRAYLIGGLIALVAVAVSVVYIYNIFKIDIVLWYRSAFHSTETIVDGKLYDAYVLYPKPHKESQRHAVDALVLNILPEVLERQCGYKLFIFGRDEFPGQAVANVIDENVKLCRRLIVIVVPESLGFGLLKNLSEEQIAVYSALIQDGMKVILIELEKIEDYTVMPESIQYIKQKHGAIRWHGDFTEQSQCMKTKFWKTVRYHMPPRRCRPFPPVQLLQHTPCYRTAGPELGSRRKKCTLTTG
Assay: cell-based or functional assay
Form field: IC50 (M); hIL36αβγ; IL-8 production (one value per entry).
// note: answer is a bare numeric in M

• hz84C4-1.1 (antibody, human IgG4 S228P, kappa, V domains shown, Humanized, human IgG4 / kappa) VH: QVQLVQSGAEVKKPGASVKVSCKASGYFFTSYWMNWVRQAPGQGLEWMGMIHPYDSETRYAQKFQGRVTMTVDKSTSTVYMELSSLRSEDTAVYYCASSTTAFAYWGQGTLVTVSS VL: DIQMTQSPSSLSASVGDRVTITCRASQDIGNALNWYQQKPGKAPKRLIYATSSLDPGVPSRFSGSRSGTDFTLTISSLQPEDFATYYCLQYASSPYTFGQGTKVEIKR = 6.51e-12
• hz84C4-2.5 (antibody, human IgG4 S228P, kappa, V domains shown, Humanized, human IgG4 / kappa) VH: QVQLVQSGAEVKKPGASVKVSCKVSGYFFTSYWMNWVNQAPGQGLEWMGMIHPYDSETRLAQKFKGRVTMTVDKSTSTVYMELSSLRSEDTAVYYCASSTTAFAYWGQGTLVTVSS VL: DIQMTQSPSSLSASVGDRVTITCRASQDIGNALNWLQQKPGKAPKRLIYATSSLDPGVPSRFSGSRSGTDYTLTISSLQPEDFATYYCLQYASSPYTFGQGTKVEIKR = 4.01e-12

**Q:** Could you tell me which IC50 (M); hIL36αβγ; IL-8 production is on file for hz84C4-2.2 (antibody, human IgG4 S228P, kappa, V domains shown, Humanized, human IgG4 / kappa) VH: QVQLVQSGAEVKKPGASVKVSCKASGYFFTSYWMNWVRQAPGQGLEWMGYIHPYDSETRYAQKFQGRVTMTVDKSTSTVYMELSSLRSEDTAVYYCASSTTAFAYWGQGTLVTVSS VL: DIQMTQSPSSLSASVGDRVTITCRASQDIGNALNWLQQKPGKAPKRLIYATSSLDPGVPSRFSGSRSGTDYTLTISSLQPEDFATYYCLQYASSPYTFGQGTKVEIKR ?
**A:** 1.31e-11

**Q:** Entry hz84C4-2.1 (antibody, human IgG4 S228P, kappa, V domains shown, Humanized, human IgG4 / kappa) VH: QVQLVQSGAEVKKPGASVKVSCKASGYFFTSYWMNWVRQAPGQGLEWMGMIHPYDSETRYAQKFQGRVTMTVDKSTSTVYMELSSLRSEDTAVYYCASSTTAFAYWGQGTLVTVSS VL: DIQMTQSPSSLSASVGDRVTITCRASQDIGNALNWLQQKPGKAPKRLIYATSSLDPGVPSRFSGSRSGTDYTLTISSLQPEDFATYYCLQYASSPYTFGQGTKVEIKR please
**A:** 3.66e-12

**Q:** Entry hz84C4-1.5 (antibody, human IgG4 S228P, kappa, V domains shown, Humanized, human IgG4 / kappa) VH: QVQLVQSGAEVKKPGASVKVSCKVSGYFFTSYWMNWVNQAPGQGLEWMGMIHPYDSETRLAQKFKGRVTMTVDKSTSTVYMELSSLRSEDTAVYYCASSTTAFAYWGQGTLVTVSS VL: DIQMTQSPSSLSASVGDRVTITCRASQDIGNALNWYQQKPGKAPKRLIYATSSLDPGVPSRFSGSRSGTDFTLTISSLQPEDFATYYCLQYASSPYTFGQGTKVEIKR please
**A:** 7.24e-12
